# System: SF-268
# experimental-details: NCI tumour cell line growth inhibition, 48 h
The source made the active and inactive calls. Rule as the data show it: active = GI50 up to about 1.1 µM and inactive = higher.
Each entry below carries its recorded GI50.

These recorded examples may help you get a feel for the data.
O=C(CP(c1ccccc1)c1ccccc1)c1cccc(C(=O)CP(c2ccccc2)c2ccccc2)c1 : 80.9 µM (inactive)
CC(C)CCC[C@@H](C)C1CCC2[C@@H]3CC=C4C[C@@H](C(=O)NCCN(C)C)CC[C@]4(C)C3CC[C@@]21C (some centres not stated) : 36 µM (inactive)

Attention now shifts to the item below.
Give GI50 (SF-268) of the following compound: `CCCc1nnc2sc(COc3cc(Cl)c(OCc4nn5c(CCC)nnc5s4)cc3Cl)nn12` 21.7 µM (inactive)

---

Each entry below carries its recorded GI50.
# Test system: A498
# experimental-details: NCI tumour cell line growth inhibition, 48 h
Calls of active or inactive are those of the source. Rule as the data show it: active = GI50 up to about 1.1 µM and inactive = higher.

O=[N+]([O-])c1ccc(OCCNc2cccc3ccccc23)cc1 : > 100 µM (inactive)
Cc1ccc([N+](=O)[O-])c2c(NCCNC(=O)c3cc(C(=O)NCCNc4ccnc5c(C)ccc([N+](=O)[O-])c45)n(C)n3)ccnc12 : > 57.4 µM (inactive)
CCc1c(O)c2c(c(O)c1C(C)=O)C(=O)c1c(cc(O)c(C(=O)O)c1C(=O)O)C2=O : > 100 µM (inactive)
Cc1c(O)c(OC2OC(CO)C(O)C(O)C2O)cc2c1CC[C@@H]1C2(C)C(=O)C[C@]2(C)[C@@H]([C@@](C)(O)C(=O)CCC(C)(C)O)[C@H](O)C[C@@]12C (stereo not given in full) : > 100 µM (inactive)
O=C(O)CCC1CCc2cccc(O)c2C1=O (stereo not given) : > 100 µM (inactive)
O=C(CSc1nnc(Cc2ccccc2)o1)Nc1ccccc1Cl : > 100 µM (inactive)

So what does the record say about GI50 for `COC(=O)c1ccccc1/C=C1/Cc2ccccc2C1=O` ? > 100 µM (inactive)

So what does the record say about GI50 for `CO[C@@H]1C[C@H]2[C@@H]3CC[C@H]([C@@H](C)CO)[C@@]3(C)CC[C@@H]2[C@@]2(C)CC[C@H]3C[C@]312` ? > 100 µM (inactive)

So what does the record say about GI50 for `Cc1cc(O)nc(CNC(=O)Cc2ccccc2)n1` ? > 100 µM (inactive)

So what does the record say about GI50 for `O=c1cc(-c2ccccc2)c2cc3c(=O)ccoc3cc2o1` ? 15.7 µM (inactive)

---

# Tested on: A549
# experimental-details: NCI tumour cell line growth inhibition, 48 h
Activity calls are given as the source filed them. Cut-off read from the data, not from the text of the source: active = GI50 up to about 1.1 µM and inactive = higher.
Bench note: report the call from yes (active), no (inactive)

COc1cc(Br)c(CC2=NCCc3cc(OC)c(OC)cc32)cc1OC : no

Now for a further molecule.
In this assay, the call recorded for `O=[N+]([O-])c1cccc(/N=N/c2c(O)ccc3ccccc23)c1` was what? no

---

# System: NCI-H522
# experimental-details: NCI tumour cell line growth inhibition, 48 h
Calls of active or inactive are those of the source. Rule as the data show it: active = GI50 up to about 1.1 µM and inactive = higher.
Bench note: report the call from Y = active, N = inactive

Record excerpt, results attached:
O=C(NN1C(=O)C(Cl)C1c1ccccc1O)c1ccccc1O (stereo not given) : N
COC(=O)CCC1=C(CC(=O)OC)C(C)(OC)N/C1=N/C(=O)OCc1ccccc1 (stereo not given) : N
COc1ccc(N2C(=O)[C@H]3CC(C)c4c([nH]c5ccccc45)[C@H]3C2=O)cc1 (stereo not given in full) : Y
COC(=O)[C@@H]1C[C@H]2OC(=O)CC[C@]2(C)O[C@H]1[C@H]1O[C@@](C)(O)CCC[C@H]1C : N

In this assay, the call recorded for `Cn1cnc([N+](=O)[O-])c1Sc1nccn1-c1ccccc1` was what? N

In this assay, the call recorded for `Oc1ccc[nH]c1=[Se]` was what? N

In this assay, the call recorded for `COC(=O)Cc1c([C@@]2(C)CCCC(C)(C)C2)ccc2c1C(=O)OC2` was what? N

---

# Test system: RPMI-8226
# experimental-details: NCI tumour cell line growth inhibition, 48 h
Active and inactive are the calls of the source. Cut-off read from the data, not from the text of the source: active = GI50 up to about 1.1 µM and inactive = higher.
Bench note: report the call from active, inactive

Record excerpt, results attached:
COc1ccc(-c2cc(-c3cc(C)ccc3O)nc(O)n2)cc1 : inactive
COc1ccc(/C(=N\NC(=O)C(=O)NN)C(c2ccc(OC)cc2)C2(O)C(=O)Nc3ccccc32)cc1 (centres undefined) : inactive

In this assay, the call recorded for CCN1C/C(=C\c2cc(OC)c(OC)c(OC)c2)C2=NN(c3ccccc3)C(c3cc(OC)c(OC)c(OC)c3)C2C1 (centres undefined) was what? inactive

In this assay, the call recorded for `Cc1cc2c3c(coc3c1-c1c(C)cc3c4c(coc14)C(=O)C(O)=C3C(C)C)C(=O)C(O)=C2C(C)C` was what? inactive

In this assay, the call recorded for `COc1ccc(/C=C/C(=O)c2ccc(OC(=O)/C=C/c3ccccc3)cc2)cc1` was what? inactive

---

Each entry below carries its recorded GI50.
# Tested on: DU-145
# experimental-details: NCI tumour cell line growth inhibition, 48 h
Active and inactive are the calls of the source. Rule as the data show it: active = GI50 up to about 1.1 µM and inactive = higher.

CCOC1CC(C)N(C(=O)c2ccccc2)O1 (stereo not given) : > 100 µM (inactive)
c1cnc2c(c1)ccc1cccnc12 : 4.13 µM (inactive)
Cc1ccc2nc3[nH]nc(N)c3nc2c1 : > 100 µM (inactive)
CC(C)(C)[Si](C)(C)OCC1CCC(n2cnc3c(=O)[nH]cnc32)O1 (stereo not given) : > 100 µM (inactive)
Cc1c2ccccc2c(C2C3C(=O)N(c4cccc5ccccc45)C(=O)C3ON2Cc2ccc(CC(N)=O)cc2)c2ccccc12 (stereo not given) : 18.9 µM (inactive)
O=C(Nc1ccccc1)c1cc(S(=O)(=O)N2CCNC2=O)c(S)cc1Cl : > 100 µM (inactive)
NC(=O)C(Nc1ccc(Cl)cc1)c1cc2cc(Br)ccc2nc1Cl (stereo not given) : > 50 µM (inactive)
CC(C(O)c1ccccc1)N(C)/N=N/c1nc2c([nH]1)c(=O)n(C)c(=O)n2C (stereo not given) : 99.3 µM (inactive)

Give GI50 (DU-145) of the following compound: Cc1cccc2c1Oc1cc(Cl)ccc1C2NC(=O)CCN1CCN(CCO)CC1 (stereo not given) 27.2 µM (inactive)

Give GI50 (DU-145) of the following compound: `O=C1C(Cl)=C(Sc2nnc3c4ccccc4c4ccccc4c3n2)C(=O)c2ccccc21` 8.81 µM (inactive)

---

Each entry below carries its recorded GI50.
# System: UO-31
# experimental-details: NCI tumour cell line growth inhibition, 48 h
The source made the active and inactive calls. Cut-off read from the data, not from the text of the source: active = GI50 up to about 1.1 µM and inactive = higher.

CC(Cc1ccccc1)Nc1ncnc2c1ncn2C1OC(CO)CC1O (stereo not given) : > 100 µM (inactive)
O=[N+]([O-])/C(C(Cl)=C(Cl)Cl)=C(\Nc1cccc2ccccc12)Sc1ccccc1 : 16 µM (inactive)
CN(/N=C\c1ccc2ccccc2c1)C1=NCCCN1 : 9.93 µM (inactive)
O=C(CP(c1ccccc1)c1ccccc1)c1cccc(C(=O)CP(c2ccccc2)c2ccccc2)c1 : 12.5 µM (inactive)

Give GI50 (UO-31) of the following compound: `Oc1nc(S)nc2c1CN(CCCN1CCOCC1)CN2` 36.8 µM (inactive)

Give GI50 (UO-31) of the following compound: `Brc1ccc2c(-c3nc(-c4c[nH]c5ccccc45)cs3)c[nH]c2c1` 19.5 µM (inactive)

Give GI50 (UO-31) of the following compound: `N#Cc1c(-c2ccc([N+](=O)[O-])cc2)cc(-c2ccc(Nc3ccnc4cc(Cl)ccc34)cc2)nc1N` 26.5 µM (inactive)

---

# Tested on: SR
# experimental-details: NCI tumour cell line growth inhibition, 48 h
Active and inactive are the calls of the source. No stated cut-off is given here; in the data, active = GI50 up to about 1.1 µM and inactive = higher.
property-measured: GI50

CCOC(=O)c1ccc(/N=N/N(C)C(=O)C(C)N)cc1 (centres undefined) : 36.1 µM (inactive)

So what does the record say about GI50 for `Oc1nc(S)nc2c1CN(CCCN1CCOCC1)CN2` ? 28.4 µM (inactive)

So what does the record say about GI50 for `Cc1cc(NS(=O)(=O)c2ccc(NC(NC(=O)OC(C)C)(C(F)(F)F)C(F)(F)F)cc2)nc(C)n1` ? > 100 µM (inactive)

So what does the record say about GI50 for O=C(O)CC1OCC=C2CN3CCC45c6ccccc6NC4C1C2CC35 (centres undefined) ? > 100 µM (inactive)

---

Each entry below carries its recorded GI50.
# Test system: HCC 2998
# experimental-details: NCI tumour cell line growth inhibition, 48 h
Activity calls are given as the source filed them. Rule as the data show it: active = GI50 up to about 1.1 µM and inactive = higher.

These recorded examples may help you get a feel for the data.
Oc1nc(S)nc2c1CN(CCCN1CCOCC1)CN2 : 21.9 µM (inactive)
COc1cc(COC(=O)N(CC(=O)O)c2ccccc2)c([N+](=O)[O-])cc1OC : > 100 µM (inactive)
C1CCNCC1.O=C1NC(=S)N/C1=C/c1ccccc1O : 23.5 µM (inactive)

So what does the record say about GI50 for `CCCCNC(=O)NNC(=O)c1cc(/C=C/c2cccc([N+](=O)[O-])c2)ncn1` ? > 100 µM (inactive)
